Test system: isomerase (recovery of 11-cis-retinal after bleaching)
Experimental protocol: In vivo murine isomerase assay (Table 3)
Condition summary: Mus musculus, po, 4 h, mice, Dose 1 mg/kg
Measure name: inhibition at 1 mg/kg (%)
One number for each entry, in %.

Go through the items and report each one's inhibition at 1 mg/kg.
1. CC(=O)N1CCC(COc2cccc([C@H](O)CCN)c2)CC1
2. NCC[C@@H](O)c1cccc(OCc2cccnc2)c1
3. NCC[C@@H](O)c1cccc(OCC2CCCC(=O)N2)c1 (stereo partly drawn)
4. NCCC(O)c1cccc(OCC2CCCCO2)c1 (stereo not drawn) [compound D, reference compound]
5. NCC[C@@H](O)c1cccc(OCc2cccs2)c1
6. NCC[C@@H](O)c1cccc(NCC2CCOCC2)c1

1. 2.6
2. 3.1
3. 9
4. 57
5. 50.6
6. -1.4

Report inhibition at 1 mg/kg for each item below.
1. NCC[C@@H](O)c1cccc(NCC2CCCCC2)c1 [reference compound]
2. Cc1cccc(COc2cccc([C@H](O)CCN)c2)n1
3. COC(=O)N1CCC(COc2cccc([C@H](O)CCN)c2)CC1
4. NCC[C@@H](O)c1cccc(OCC2CCS(=O)(=O)CC2)c1

1: 96; 2: 11.2; 3: 88; 4: -8.2

Please state inhibition at 1 mg/kg for every molecule in the list that follows.
1. NCC[C@@H](O)c1cccc(OCC2CCCSC2)c1 (mixture of isomers)
2. NCC[C@@H](O)c1cccc(OCC2CCCOC2)c1 (mixture of isomers)
3. CNCC[C@@H](O)c1cccc(OCC2CCOCC2)c1
4. NCC[C@@H](O)c1cccc(OCC2COc3ccccc3C2)c1 (mixture of isomers)
5. NCC[C@@H](O)c1cccc(OCC2CCOCC2)c1
6. NCCC(O)c1cccc(OCC2CCOCC2)c1 (stereo not drawn)
7. NCC[C@@H](O)c1cccc(OCc2ccncc2)c1
8. NCC[C@@H](O)c1cccc(OCC2CCCO2)c1 (mixture of isomers)

1. 68
2. 94.2
3. 54.5
4. 91.4
5. 91.1
6. 89.9
7. -8.7
8. 59.8

Could I get inhibition at 1 mg/kg for every one of these entries?
1. NCC[C@@H](O)c1cccc(OCC2CCSCC2)c1
2. NCC[C@@H](O)c1cccc(OCc2ccsc2)c1

[33.2, 27.4]

Entry NCC[C@@H](O)c1cccc(OCC2CCCS(=O)(=O)C2)c1 (mixture of isomers) : reported inhibition at 1 mg/kg = ?
-7.6
